Data origin: patent US20250368633A1

experimentalTarget: RIPK1 kinase (Homo sapiens, UniProt Q13546)
Construct: purchased Promega VA7593
Sequence (Q13546 1-671): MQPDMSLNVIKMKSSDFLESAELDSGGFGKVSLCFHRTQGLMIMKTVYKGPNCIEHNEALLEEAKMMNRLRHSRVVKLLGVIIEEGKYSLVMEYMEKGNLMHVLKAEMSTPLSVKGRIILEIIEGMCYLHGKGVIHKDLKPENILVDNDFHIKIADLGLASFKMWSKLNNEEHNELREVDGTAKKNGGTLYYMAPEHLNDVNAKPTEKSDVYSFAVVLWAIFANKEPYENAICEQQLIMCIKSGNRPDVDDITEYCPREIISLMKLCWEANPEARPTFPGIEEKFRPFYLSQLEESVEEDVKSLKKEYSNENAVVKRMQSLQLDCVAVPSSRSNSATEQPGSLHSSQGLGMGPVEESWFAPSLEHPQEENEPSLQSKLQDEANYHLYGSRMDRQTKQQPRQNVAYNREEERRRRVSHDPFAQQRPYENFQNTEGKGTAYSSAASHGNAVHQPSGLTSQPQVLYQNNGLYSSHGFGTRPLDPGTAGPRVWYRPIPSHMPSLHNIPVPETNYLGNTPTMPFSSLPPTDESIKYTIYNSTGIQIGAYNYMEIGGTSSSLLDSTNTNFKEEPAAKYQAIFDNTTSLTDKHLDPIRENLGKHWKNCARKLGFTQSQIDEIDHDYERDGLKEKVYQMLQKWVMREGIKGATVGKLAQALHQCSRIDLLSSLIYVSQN
measurementNotes: In vitro RIPK1 kinase activity assay (ADP-Glo), inhibition by compounds at 1 μM
Type: biochemical
conditionsUsed: compound 1 μM; ATP 10 μM; MBP substrate 100 μg/mL; read-out: RIPK1 kinase activity inhibition rate range

[
  {
    "structureSmilesString": "CN1C(=O)[C@@H](NC(=O)C(=O)NCCc2ccccc2)COc2ccc(C#CC3=CCCCC3)cc21",
    "experimentalTarget": "RIPK1 kinase (Homo sapiens, UniProt Q13546)",
    "inhibition at 1 µM": "≥ 75%"
  },
  {
    "structureSmilesString": "CN1C(=O)[C@@H](NC(=O)C(=O)NCCc2ccccc2)COc2ccc(C#CCn3ccnc3)cc21",
    "experimentalTarget": "RIPK1 kinase (Homo sapiens, UniProt Q13546)",
    "inhibition at 1 µM": "≥ 75%"
  },
  {
    "structureSmilesString": "C[C@H](NC(=O)C(=O)N[C@H]1COc2ccc(C#CCCO)cc2N(C)C1=O)c1ccccc1",
    "experimentalTarget": "RIPK1 kinase (Homo sapiens, UniProt Q13546)",
    "inhibition at 1 µM": "50 to 74%"
  },
  {
    "structureSmilesString": "CN(C)c1ccc(C#Cc2ccc3c(c2)N(C)C(=O)[C@@H](NC(=O)C(=O)NCCc2ccccc2)CO3)cc1",
    "experimentalTarget": "RIPK1 kinase (Homo sapiens, UniProt Q13546)",
    "inhibition at 1 µM": "25 to 49%"
  },
  {
    "structureSmilesString": "C[C@@H](NC(=O)C(=O)N[C@H]1COc2ccc(C#CCN3CCOCC3)cc2N(C)C1=O)c1ccccc1",
    "experimentalTarget": "RIPK1 kinase (Homo sapiens, UniProt Q13546)",
    "inhibition at 1 µM": "≥ 75%"
  },
  {
    "structureSmilesString": "C[C@@H](NC(=O)C(=O)N[C@H]1COc2ccc(C#CC[N+]3([O-])CCOCC3)cc2N(C)C1=O)c1ccccc1",
    "experimentalTarget": "RIPK1 kinase (Homo sapiens, UniProt Q13546)",
    "inhibition at 1 µM": "50 to 74%"
  },
  {
    "structureSmilesString": "CN1C(=O)[C@@H](NC(=O)C(=O)NCCc2ccc(F)cc2)COc2ccc(C#CCCO)cc21",
    "experimentalTarget": "RIPK1 kinase (Homo sapiens, UniProt Q13546)",
    "inhibition at 1 µM": "50 to 74%"
  }
]
